# System: BGC-823
# EXPERIMENT_DESCRIPTION: Cytotoxicity against human BGC823 cells after 48 hrs by MTT assay
# Type: functional, cell-based
# CONDITIONS: BGC-823, 48 h
ASSAY_ENDPOINT: IC50 (µM)
// units = µM; emit number, no label

IC50 recorded for this compound, COC(=O)/C(C)=C\C[C@@]12OC(C)(C)[C@@H]3C[C@@H](C=C4C(=O)c5c(OC)c6c(c(CC7OC7(C)C)c5O[C@]431)O[C@](C)(CCC1OC1(C)C)C=C6)C2=O (stereo partly drawn) , is 3.21

For CC(C)=CCC[C@]1(C)C=Cc2c(O)c3c(c(CC=C(C)C)c2O1)O[C@]12C(=C[C@@H]4C[C@H]1C(C)(C)O[C@@]2(C/C=C(/C)C(=O)O)C4=O)C3=O [GAMBOGIC ACID] the compound record lists IC50 as 4.51

Memo: `COC(=O)/C(C)=C\C[C@@]12OC(C)(C)[C@@H]3C[C@@H](C=C4C(=O)c5c(OC)c6c(c(CC=C(C)C)c5O[C@]431)O[C@](C)(CC[C@H](O)C(C)(C)O)C=C6)C2=O` , reported IC50: 3.46
